Molecular target: BjaI (Bradyrhizobium diazoefficiens, UniProt Q89VI2)
Sequence (Q89VI2 whole entry): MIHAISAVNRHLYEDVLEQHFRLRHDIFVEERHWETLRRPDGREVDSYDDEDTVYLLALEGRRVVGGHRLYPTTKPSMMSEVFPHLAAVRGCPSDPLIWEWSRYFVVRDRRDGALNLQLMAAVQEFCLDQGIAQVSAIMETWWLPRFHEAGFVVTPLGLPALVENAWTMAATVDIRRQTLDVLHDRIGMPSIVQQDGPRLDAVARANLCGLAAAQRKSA
READOUT_KIND: Ki (µM)
Write the value in µM as a bare number.

Q. Give the measured Ki for CC(C)CCSCCNC(=O)CCNC(=O)[C@H](O)C(C)(C)COP(=O)(O)OP(=O)(O)OC[C@H]1O[C@@H](n2cnc3c(N)ncnc32)[C@H](O)[C@@H]1OP(=O)(O)O
A. 21

Origin of measurements: paper PMC4234381
